experimental_system: eIF5A:DOHH complex (Homo sapiens)
Construct: Endogenous DOHH co-immunoprecipitated with FLAG-eIF5A; expressed in transfected cells; host or cells: 293T cells (DOHH endogenous, FLAG-eIF5A transfected)
Sequence (Q9BU89 whole entry, one chain of several): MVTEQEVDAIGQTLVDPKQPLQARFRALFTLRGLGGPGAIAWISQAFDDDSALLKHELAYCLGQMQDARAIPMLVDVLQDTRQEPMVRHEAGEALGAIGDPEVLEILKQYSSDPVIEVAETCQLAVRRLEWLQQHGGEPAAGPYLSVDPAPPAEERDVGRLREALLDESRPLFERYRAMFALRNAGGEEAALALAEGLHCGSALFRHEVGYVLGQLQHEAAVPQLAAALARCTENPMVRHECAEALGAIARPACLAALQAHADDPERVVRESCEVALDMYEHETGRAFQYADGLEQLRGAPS
test_name: Co-immunoprecipitation of eIF5A with DOHH from 293T cell extracts
Format: cell-based
condition_context: CPX 30 μM, P2 30 μM, DEF 250 μM, DFOX 10 μM, GC7 10 μM; 24 hr
quantity_measured: association of endogenous DOHH with FLAG-eIF5A

>>> reported("Cc1cc(C2CCCCC2)n(O)c(=O)c1 [CPX]")
"largely prevented"
>>> reported("Cc1c(O)c(=O)ccn1C [DEF, 3-hydroxy-1,2-dimethylpyridin-4(1H)-one]")
"largely prevented"
